Target or system ATX (human His-tagged) (Homo sapiens (Human)): recorded pIC50 listed per item.
One number for each entry, as −log10 of the molar value.

Ask: Which pIC50 is reported for this compound? CN(C)c1cc(C(=O)N2C[C@@H]3CN(C(=O)[C@@H]4CCc5[nH]nnc5C4)C[C@H]3C2)cc(OCC2CCOCC2)n1 [Example 2.25]
Reply: 7.77

# batch size: 4; output pIC50 per entry
1. O=C(c1cnc(NC2CCOCC2)c(C2CC2)c1)N1C[C@@H]2CN(C(=O)[C@@H]3CCc4[nH]nnc4C3)C[C@H]2C1 [Example 2.11]
2. O=C(c1cnc(OC2CCOCC2)c(C2CC2)c1)N1C[C@@H]2CN(Cc3ccc4[nH]c(=O)oc4c3)C[C@H]2C1 [Example 4]
3. O=C(c1cnc(OC2CCOCC2)c(C2CC2)c1)N1C[C@@H]2CN(C(=O)c3ccc4[nH]c(=O)oc4c3)C[C@H]2C1 [Example 3]
4. NS(=O)(=O)c1ccc(C(=O)N2C[C@H]3CN(C(=O)c4cc(OCC5CCCOC5)nc(C5CC5)c4)C[C@@H]3C2)nc1 (some centres unmarked) [Example 2.17]

Reply:
[8.05, 7.72, 7.60, 8.05]
